The reported measurements were obtained from patent US20110257105A1.

Target: mouse kappa opioid receptor (mouse, UniProt P33534 1-380)
Sequence (P33534 whole entry): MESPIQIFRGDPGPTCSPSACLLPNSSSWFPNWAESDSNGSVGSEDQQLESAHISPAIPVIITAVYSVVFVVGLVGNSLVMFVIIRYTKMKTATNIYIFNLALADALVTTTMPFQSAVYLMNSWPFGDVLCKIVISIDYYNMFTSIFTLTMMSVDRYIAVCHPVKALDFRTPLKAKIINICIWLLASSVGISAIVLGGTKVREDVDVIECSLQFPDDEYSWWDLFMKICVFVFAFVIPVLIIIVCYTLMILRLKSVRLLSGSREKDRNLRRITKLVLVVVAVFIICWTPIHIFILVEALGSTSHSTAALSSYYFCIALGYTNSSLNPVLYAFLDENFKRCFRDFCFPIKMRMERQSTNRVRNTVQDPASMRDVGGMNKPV
Assay: cell-based or functional assay
Square brackets hold non-standard residues; d marks the D form. Ends that are not written are not given here. dAgb = N=C(N)NCC[C@@H](N)C(=O)O; dNle = CCCC[C@@H](N)C(=O)O
Readout name: Efficacy(%), cAMP inhibition in R1.G1 cells
Your answer is read as %, so omit the unit and give the number.

Use these answered entries as a reference point.
{"Binder": "[dF][dF][dL][dOrn(iPr)]-{4‑amino‑4‑carboxylic piperidine} (also: two identical chains joined through C-termini to N1 and 4-amino group of piperidine scaffold) [Compound (49): 1N,4N-bis-[D-Phe-D-Phe-D-Leu-(iPr)D-Orn]-4-amino-4-carboxylic-piperidine]", "Value measured": 50}
{"Binder": "[dF][dF][dL][dDap(amidino)]-{4‑amino‑4‑carboxylic piperidine} (also: two identical chains joined through C-termini to N1 and 4-amino group of piperidine scaffold) [Compound (50): 1N,4N-bis-[D-Phe-D-Phe-D-Leu-D-Dap(amidino)]-4-amino-4-carboxylic piperidine]", "Value measured": 77}
{"Binder": "[dF][dF][dNle][dR][dP]-OH (N-terminus assumed; SMILES CCCC[C@@H](NC(=O)[C@@H](Cc1ccccc1)NC(=O)[C@H](N)Cc1ccccc1)C(=O)N[C@H](CCCNC(=N)N)C(=O)N1CCC[C@@H]1C(=O)O) [Compound (3): D-Phe-D-Phe-D-Nle-D-Arg-D-Pro-OH]", "Value measured": 88}

Consider the additional binder presented here.
Enquiry: # lookup: Efficacy(%), cAMP inhibition in R1.G1 cells of [dF][dF][dL][dAgb]-{4‑amino‑4‑carboxylic piperidine} (also: two identical chains joined through C-termini to N1 and 4-amino group of piperidine scaffold) [Compound (51): 1N,4N-bis-(D-Phe-D-Phe-D-Leu-D-Nar)-4-amino-4-carboxylic piperidine]
Return: 60
